Target: mouse GnRH receptor (Mus musculus)
Construct: expressed in transfected cells; host or cells: 293 cells
Sequence (Q01776 1-327): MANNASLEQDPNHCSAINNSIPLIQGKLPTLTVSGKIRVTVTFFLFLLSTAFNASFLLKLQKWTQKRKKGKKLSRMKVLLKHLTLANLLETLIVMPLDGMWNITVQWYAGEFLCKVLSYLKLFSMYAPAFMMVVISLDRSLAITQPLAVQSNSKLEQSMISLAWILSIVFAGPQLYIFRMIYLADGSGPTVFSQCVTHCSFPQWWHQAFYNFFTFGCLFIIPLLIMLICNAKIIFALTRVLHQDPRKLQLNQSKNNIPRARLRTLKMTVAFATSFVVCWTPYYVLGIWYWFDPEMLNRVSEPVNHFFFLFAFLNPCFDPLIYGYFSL
Assay: Radioligand binding, 125I-GnRH-A, 293 cells expressing mouse GnRH receptors
Conditions: 1 h, substrate remaining; 10 uM compound; closer to zero = closer to 100% inhibition; read-out: S%R 10 uM mGnRHR

{"molecule": "Cc1cc2c(cc1Cc1ccc(C(=O)N(Cc3ccsc3)C3CCN(Cc4ccccc4)C3)o1)C(C)(C)CCC2(C)C (stereo not shown) [Compound 612]", "remaining activity at 10 µM (%)": 9}
{"molecule": "Cc1cc2c(cc1Cc1ccc(C(=O)N(CCC#N)Cc3cccnc3)o1)C(C)(C)CCC2(C)C [Compound 541]", "remaining activity at 10 µM (%)": 9}
{"molecule": "Cc1cc2c(cc1Cc1ccc(C(=O)NCCc3ccc(Oc4ccccc4)cc3)o1)C(C)(C)CCC2(C)C [Compound 622]", "remaining activity at 10 µM (%)": 43}
{"molecule": "Cc1cc2c(cc1Cc1ccc(C(=O)N(CCN(C)C)Cc3cccc4ccccc34)o1)C(C)(C)CCC2(C)C [Compound 575]", "remaining activity at 10 µM (%)": -3}

###

Biological target: human GnRH receptor (Homo sapiens, UniProt P30968)
Construct: expressed in transfected cells; host or cells: HEK 293 (hGnRH-R/293, from Dr. Stuart Sealfon)
Sequence (P30968 1-328): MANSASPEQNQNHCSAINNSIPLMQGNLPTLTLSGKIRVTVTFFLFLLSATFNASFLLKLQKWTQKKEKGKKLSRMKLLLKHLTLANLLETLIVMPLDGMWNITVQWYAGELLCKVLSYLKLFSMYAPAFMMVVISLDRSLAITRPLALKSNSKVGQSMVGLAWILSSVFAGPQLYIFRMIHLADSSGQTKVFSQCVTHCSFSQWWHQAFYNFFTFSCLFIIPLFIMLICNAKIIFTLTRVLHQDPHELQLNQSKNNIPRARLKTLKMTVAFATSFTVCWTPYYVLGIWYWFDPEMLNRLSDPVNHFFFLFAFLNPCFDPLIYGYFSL
Test: Radioligand binding, 125I-GnRH-A displacement, membranes of HEK 293 cells with human GnRH receptor
Conditions: 1 h, repeat of % Inhib. at 1 uM; read-out: Repeats @ 1 uM hGnRH
measurement_label: inhibition at 1 µM

{"compound": "Cc1cc2c(cc1Cc1ccc(C(=O)N(C)C(C)C(O)c3ccc(O)cc3)o1)C(C)(C)CCC2(C)C (stereo not shown)", "measurement_label": "inhibition at 1 µM", "val": "-13%"}
{"compound": "Cc1cc2c(cc1Cc1ccc(C(=O)N3CCc4cc(O)c(O)cc4C3C)o1)C(C)(C)CCC2(C)C (stereo not shown)", "measurement_label": "inhibition at 1 µM", "val": "-5%"}
{"compound": "Cc1cc2c(cc1Cc1ccc(C(=O)NC3CCc4ccccc43)o1)C(C)(C)CCC2(C)C (stereo not shown) [drawing 1129]", "measurement_label": "inhibition at 1 µM", "val": "45%"}
{"compound": "Cc1cc2c(cc1Cc1ccc(C(=O)N3CCN(c4nccc(NCC5CCCO5)n4)CC3)o1)C(C)(C)CCC2(C)C (stereo not shown)", "measurement_label": "inhibition at 1 µM", "val": "25%"}
